Every entry's value here was drawn from patent US20250346668A1.

# TARGET_OR_TEST_SYSTEM: T1, human CD3e/g antigen (ACRO, catalog number CDG-H52W5) (human, UniProt P07766 23-126; P09693 23-116)
# T1 construct: Bought reagent used as the Biacore analyte; also called hCD3e/g
# ASSAY_SUMMARY: SPR (Biacore 8K), antibody captured via anti-human Fc
Overview of reported koff across a group of binders:
Reply numerically in s⁻¹, unit not repeated.

For orientation, consider the following solved cases.
hAb001-22 (antibody, V domains shown, Humanized; constant regions not specified) VH: QVQLVQSGAEVKKPGASVKVSCKASGYSFTNYYMHWVRQAPGQRLEWIGWTYPGNNNIKYNEKFKGRVTITADTSASTAYMELSSLRSEDTAVYYCARDGYGYYFFDYWGQGTLVTVSS VL: DIVMTQSPDSLAVSLGERATINCKSSQSLLNNRTRKNYLAWYQQKPGQPPKLLIYWASTRESGVPDRFTGSGSGTDFTLTISSLQAEDVAVYYCKQSYTLRTFGGGTKLEIK = 0.00848
hAb001-27 (antibody, V domains shown, Humanized; constant regions not specified) VH: QVQLVQSGAEVKKPGASVKVSCKASGYSFTNYYMHWVRQAPGQRLEWIGWTYPGNNNIKYNEKFKGRATITADTSASTAYMELSSLRSEDTAVYYCARDGYGYYFFDYWGQGTLVTVSS VL: DIVMTQSPDSLAVSLGERATMSCKSSQSLLNNRTRKNYLAWYQQKPGQPPKLLIYWASTRESGVPDRFSGSGSGTDFTLTISSLQAEDVAVYYCKQSYTLRTFGGGTKLEIK = 0.00823
hAb008-28 (antibody, V domains shown, Humanized; constant regions not specified) VH: QVQLVQSGAEVKKPGASVKVSCKASGYTFTDYTVNWVKQAPGQRLEWIGYINPFNSYTKYNQKFKDRATITADTSASTAYMELSSLRSEDTAVYFCANSVSTYWGQGTTVTVSS VL: DVVMTQSPLSLPVTLGQPASISCKSSQSLLDSDGKTYLNWFQQRPGQSPRRLIYLVSKLNSGVPDRFSGSGSGTDFTLKISRVEAEDVGVYYCWQGTHFPRTFGGGTKLEIK = 0.00441
hAb001-18 (antibody, V domains shown, Humanized; constant regions not specified) VH: QVQLVQSGAEVKKPGASVKVSCKASGYSFTNYYMHWVRQAPGQRLEWMGWTYPGNNNIKYNEKFKGRVTITRDTSASTAYMELSSLRSEDTAVYYCARDGYGYYFFDYWGQGTLVTVSS VL: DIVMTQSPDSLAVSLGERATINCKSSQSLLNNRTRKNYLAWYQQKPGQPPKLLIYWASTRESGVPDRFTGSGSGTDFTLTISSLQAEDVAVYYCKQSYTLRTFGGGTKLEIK = 0.0121

Query string: Check the records and state koff for hAb008-24 (antibody, V domains shown, Humanized; constant regions not specified) VH: QVQLVQSGAEVKKPGASVKVSCKASGYTFTDYTVNWVRQAPGQRLEWIGYINPFNSYTKYNQKFKDRATITADTSASTAYMELSSLRSEDTAVYFCANSVSTYWGQGTTVTVSS VL: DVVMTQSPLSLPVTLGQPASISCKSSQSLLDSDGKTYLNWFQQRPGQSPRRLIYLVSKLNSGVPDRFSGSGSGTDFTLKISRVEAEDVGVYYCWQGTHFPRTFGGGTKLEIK
Result string: 0.00269
